System: Bacillus subtilis
ASSAY_EXPLANATION: Antibacterial activity against Bacillus subtilis 168 measured after 24 hrs by broth microdilution method
Format: functional
// returns Not met unless MIC is strictly below 4 µg/mL, in which case Met

Take a look at these entries with their results.
| COMPOUND | STUDY_SYSTEM | CLASS |
| --- | --- | --- |
| [H]/N=C(\N/C(=N/[H])NCCCCCCNC(=N)NC(=N)Nc1ccc(Cl)cc1)Nc1ccc(Cl)cc1 [CHLORHEXIDINE] | Bacillus subtilis | Met |
| CCCCCCCCCCCC(=O)NCC[N+](C)(C)Cc1cnc(C)c2c1COC(C)(C)O2.[Cl-] | Bacillus subtilis | Not met |
| CCCCCCCCCCCCCC(=O)OCC[N+](C)(C)Cc1cnc(C)c2c1COC(C)(C)O2.[Cl-] | Bacillus subtilis | Met |

Strictly below 4 µg/mL in MIC? CCCCCCCCCCCCCCCCCC(=O)NCCC[N+](C)(C)Cc1cnc(C)c2c1COC(C)(CCC)O2.[Cl-] (centres undefined)
Not met

Strictly below 4 µg/mL in MIC? CCCCCCCCCCCCCCCC(=O)OCCC[N+](C)(C)Cc1cnc(C)c2c1COC(CCC)O2.[Cl-] (centres undefined)
Not met

Strictly below 4 µg/mL in MIC? CCCCCCCCCCCC(=O)NCC[N+](C)(C)Cc1cnc(C)c2c1COC(C)(CCC)O2.[Cl-] (centres undefined)
Met

Strictly below 4 µg/mL in MIC? CCCCCCCCCCCCCC(=O)OCCC[N+](C)(C)Cc1cnc(C)c2c1COC(CCC)O2.[Cl-] (centres undefined)
Met

Strictly below 4 µg/mL in MIC? CCCCCCCCCCCCCC(=O)OCCC[N+](C)(C)Cc1nc(C)c2c(c1CO)COC(CCC)O2.[Cl-] (centres undefined)
Met

---

Catalogue of molecules with associated LD50 at 336 h
ASSAY_EXPLANATION: Acute toxicity in topically treated C57BL/6CBA mouse measured upto 14 days
STATED_CONDITIONS: in vivo, topical or ocular, time <=14 day

| MOLECULE | VALUE_REPORTED |
| --- | --- |
| CCCCCCCCCCCCCC(=O)NCC[N+](C)(C)Cc1nc(C)c2c(c1CO)COC(C)(C)O2.[Cl-] | > 2500 mg/kg |

Continue with the next molecule.
Consider CCCCCCCCCCCC(=O)NCC[N+](C)(C)Cc1cnc(C)c2c1COC(C)(CCC)O2.[Cl-] (configuration not stated) . Its measured LD50 at 336 h is > 2500 mg/kg

---

Test system: Pseudomonas sp.
ASSAY_EXPLANATION: Antibacterial activity against clinical isolate Pseudomonas sp. 5 measured after 24 hrs by broth microdilution method
Assay type: functional
ENDPOINT_NAME: MIC (µg/mL)
Write it as a number; the unit µg/mL goes unstated.

| COMPOUND | MIC, µg/mL |
| --- | --- |
| CCCCCCCCCCCCCC(=O)OCC[N+](C)(C)Cc1cnc(C)c2c1COC(C)(C)O2.[Cl-] | 64 |

Continue with the next compound.
Consider CCCCCCCCCCCCCC(=O)OCC[N+](C)(C)Cc1nc(C)c2c(c1CO)COC(C)(C)O2.[Cl-] . Its measured MIC is 64

---

System: Bacillus subtilis
ASSAY_EXPLANATION: Antibacterial activity against Bacillus subtilis 168 measured after 24 hrs by broth microdilution method
Type: functional
ENDPOINT_NAME: MIC (µg/mL)
Write it as a number; the unit µg/mL goes unstated.

Below, 10 molecules whose answers are already recorded.
| MOLECULE | STUDY_SYSTEM | UNIT_TEXT | MIC |
| --- | --- | --- | --- |
| CCCCCCCCCCCCCC(=O)NCCC[N+](C)(C)Cc1cnc(C)c2c1COC(C)(CCC)O2.[Cl-] (stereo not drawn) | Bacillus subtilis | µg/mL | 2 |
| CCCCCCCCCCCC(=O)OCCC[N+](C)(C)Cc1cnc(C)c2c1COC(CCC)O2.[Cl-] (stereo not drawn) | Bacillus subtilis | µg/mL | 2 |
| CCCCCCCCCCCCCC(=O)OCCC[N+](C)(C)Cc1cnc(C)c2c1COC(CCCCC)O2.[Cl-] (stereo not drawn) | Bacillus subtilis | µg/mL | 4 |
| CCCCCCCCCCCCCC(=O)NCC[N+](C)(C)Cc1cnc(C)c2c1COC(C)(CCC)O2.[Cl-] (stereo not drawn) | Bacillus subtilis | µg/mL | 2 |
| CCCCCCCCCCCC(=O)NCCC[N+](C)(C)Cc1cnc(C)c2c1COC(C)(CCC)O2.[Cl-] (stereo not drawn) | Bacillus subtilis | µg/mL | 4 |
| CCCCCCCCCCCCCC(=O)NCCC[N+](C)(C)Cc1cnc(C)c2c1COC(C)(C)O2.[Cl-] | Bacillus subtilis | µg/mL | 2 |
| CCCCCCCCCCCCCCCC(=O)NCCC[N+](C)(C)Cc1cnc(C)c2c1COC(C)(CCC)O2.[Cl-] (stereo not drawn) | Bacillus subtilis | µg/mL | 4 |
| CCCCCCCCCCCCCCCC(=O)OCC[N+](C)(C)Cc1cnc(C)c2c1COC(CCC)O2.[Cl-] (stereo not drawn) | Bacillus subtilis | µg/mL | 4 |
| CCCCCCCCCCCC(=O)OCC[N+](C)(C)Cc1cnc(C)c2c1COC(CCC)O2.[Cl-] (stereo not drawn) | Bacillus subtilis | µg/mL | 2 |
| CCCCCCCCCCCCCCCCCC(=O)NCCC[N+](C)(C)Cc1cnc(C)c2c1COC(C)(C)O2.[Cl-] | Bacillus subtilis | µg/mL | 8 |

Consider CCCCCCCCCCCCCCCCCC(=O)NCC[N+](C)(C)Cc1cnc(C)c2c1COC(C)(C)O2.[Cl-] . Its measured MIC is 8

Consider CCCCCCCCCCCCCC(=O)OCC[N+](C)(C)Cc1nc(C)c2c(c1CO)COC(C)(C)O2.[Cl-] . Its measured MIC is 0.5

Consider CCCCCCCCCCCCCC(=O)NCC[N+](C)(C)Cc1nc(C)c2c(c1CO)COC(C)(C)O2.[Cl-] . Its measured MIC is 1

Consider CCCCCCCCCCCCCC(=O)OCC[N+](C)(C)Cc1cnc(C)c2c1COC(CCC)O2.[Cl-] (stereo not drawn) . Its measured MIC is 4

Consider CCCCCCCCCCCCCC(=O)OCCC[N+](C)(C)Cc1nc(C)c2c(c1CO)COC(C)(C)O2.[Cl-] . Its measured MIC is 0.5

Consider CCCCCCCCCCCCCC(=O)NCC[N+](C)(C)Cc1nc(C)c2c(c1CO)COC(CCC)O2.[Cl-] (stereo not drawn) . Its measured MIC is 2

---

ASSAY_EXPLANATION: Genotoxicity in Salmonella typhimurium TA1535 assessed as number of revertant by Ames spot test relative to solvent control
Type: toxicity
STATED_CONDITIONS: salmonella enterica subsp. enterica serovar typhimurium
ENDPOINT_NAME: Ratio
Reply briefly: the number, and no unit.

| COMPOUND | Ratio |
| --- | --- |
| COS(C)(=O)=O | 30 |

Consider CCCCCCCCCCCCCC(=O)OCC[N+](C)(C)Cc1cnc(C)c2c1COC(C)(C)O2.[Cl-] . Its measured Ratio is 0.9

Consider CCCCCCCCCCCC(=O)NCC[N+](C)(C)Cc1cnc(C)c2c1COC(C)(CCC)O2.[Cl-] (stereo not given) . Its measured Ratio is 0.5

Consider CCCCCCCCCCCCCC(=O)OCC[N+](C)(C)Cc1cnc(C)c2c1COC(CCC)O2.[Cl-] (stereo not given) . Its measured Ratio is 0.4

---

ASSAY_EXPLANATION: Genotoxicity in Salmonella typhimurium TA100 assessed as number of revertant by Ames spot test relative to solvent control
Type: toxicity
STATED_CONDITIONS: salmonella enterica subsp. enterica serovar typhimurium
Catalogue of compounds with associated Ratio

Consider CCCCCCCCCCCCCC(=O)NCC[N+](C)(C)Cc1cnc(C)c2c1COC(C)(CCC)O2.[Cl-] (stereo not given) . Its measured Ratio is 0.7

---

Catalogue of compounds with associated LD50 at 168 h
ASSAY_EXPLANATION: Acute toxicity in po dosed C57BL/6CBA mouse measured upto 7 days
Type: organism-based
STATED_CONDITIONS: in vivo, time <=7 day
Write it as a number; the unit mg/kg goes unstated.

Consider CCCCCCCCCCCCCC(=O)NCCC[N+](C)(C)Cc1ccccc1.[Cl-] . Its measured LD50 at 168 h is 1000

Consider [H]/N=C(\N/C(=N/[H])NCCCCCCNC(=N)NC(=N)Nc1ccc(Cl)cc1)Nc1ccc(Cl)cc1 . Its measured LD50 at 168 h is 1260

---

ASSAY_EXPLANATION: Cytotoxicity against human mesenchymal stem cells assessed as cell viability measured after 72 hrs by MTT assay
Assay type: cell-based
ENDPOINT_NAME: CC50 at 72 h (µg/mL)
Write it as a number; the unit µg/mL goes unstated.

| COMPOUND | VALUE_REPORTED |
| --- | --- |
| CCCCCCCCCCCCCC(=O)NCC[N+](C)(C)Cc1cnc(C)c2c1COC(C)(CCC)O2.[Cl-] (stereo unspecified) | 1.38 |
| CCCCCCCCCCCC(=O)NCC[N+](C)(C)Cc1cnc(C)c2c1COC(C)(CCC)O2.[Cl-] (stereo unspecified) | 1.15 |
| CCCCCCCCCCCCCC(=O)NCC[N+](C)(C)Cc1cnc(C)c2c1COC(C)(C)O2.[Cl-] | 2.16 |
| CCCCCCCCCCCCCC(=O)NCC[N+](C)(C)Cc1nc(C)c2c(c1CO)COC(C)(C)O2.[Cl-] | 1.74 |

Consider [H]/N=C(\N/C(=N/[H])NCCCCCCNC(=N)NC(=N)Nc1ccc(Cl)cc1)Nc1ccc(Cl)cc1 [CHLORHEXIDINE] . Its measured CC50 at 72 h is 5.12

Consider CCCCCCCCCCCC(=O)OCCC[N+](C)(C)Cc1cnc(C)c2c1COC(CCC)O2.[Cl-] (stereo unspecified) . Its measured CC50 at 72 h is 2.42
